- Protocol description: clinical
- Assay type: in vivo
- Experimental context: human, plasma, intravenous, 20 mg/m2, Cmax, Sequential schedule, 20 mg/m^2, Day 5; mean (St dev)

| Compound | Cmax |
| --- | --- |
| Nc1ncn([C@H]2C[C@H](O)[C@@H](CO)O2)c(=O)n1 [decitabine, 5-aza-2'-deoxycytidine] | 198 ng/mL |

* * *

- Protocol description: clinical
- Format: in vivo
- Experimental context: human, plasma, intravenous, 10 mg/m2, AUCinf, Sequential schedule, 10 mg/m^2, Day 5; mean (St dev)

| Compound | AUC(0-inf) / ng·h/mL |
| --- | --- |
| Nc1ncn([C@H]2C[C@H](O)[C@@H](CO)O2)c(=O)n1 [decitabine, 5-aza-2'-deoxycytidine] | 57.8 |
